Measured TGI of individual entries
system: 786-0 renal; assay: NCI tumour cell line growth inhibition, 48 h

>  <compound>
O=C(CSc1nc(-c2ccccc2)c(-c2ccccc2)[nH]1)N/N=C/c1ccc(O)cc1

>  <TGI>
54.8 µM

$$$$
>  <compound>
CC(=O)[O-].Cn1ccnc1CNCc1nccn1C.[Cu+2].[O-][Cl+3]([O-])([O-])[O-]

>  <TGI>
> 100 µM

$$$$
>  <compound>
CCN(Cc1ccccc1)C1CCN(Cc2cc(Br)ccc2O)CC1

>  <TGI>
> 100 µM

$$$$
>  <compound>
CC(C)=CCC/C(C)=C/COc1c2ccoc2cc2oc(=O)ccc12

>  <TGI>
> 100 µM

$$$$
>  <compound>
O=C(O)[C@H](NS(=O)(=O)c1ccc(F)cc1)c1ccccc1

>  <TGI>
> 100 µM

$$$$
>  <compound>
CC1=C(C(=O)Nc2ccccc2)C(c2cccc3ccccc23)C(C(=O)Nc2ccccc2)=C(C)N1

>  <TGI>
52.5 µM

$$$$
>  <compound>
C[C@]12CC[C@H]3[C@@H](CC=C4C[C@@H](N5CCCC5)CC[C@@]43C)[C@@H]1C/C(=C\c1cccc(OCCN3CCOCC3)c1)[C@@H]2O

>  <TGI>
3.62 µM

$$$$
>  <compound>
O=C(O)c1cnc(-n2[nH]c3c(c2=O)CCCC3)[nH]c1=O

>  <TGI>
> 100 µM

$$$$
>  <compound>
CCOC(=O)C(Cc1ccc(OC(=O)OC(C)(C)C)cc1)NC(=O)OC(C)(C)C (centres undefined)

>  <TGI>
> 100 µM

$$$$

====

test system: LOX IMVI melanoma; assay: NCI tumour cell line growth inhibition, 48 h
observation_type: TGI

>  <compound>
Nc1nc([Se])c2ncn(C3OC(CO)C(O)C3O)c2n1 (stereo not drawn)

>  <observation_type>
TGI

>  <result>
> 100 µM

$$$$
>  <compound>
COc1ccc(-c2nc(-c3ccc(C)cc3)cn3ccnc23)cc1

>  <observation_type>
TGI

>  <result>
13.8 µM

$$$$
>  <compound>
COc1cc2c3c(n(C)c(=O)c2cc1OC)-c1cc2c(cc1/C3=C\CCCI)OCO2

>  <observation_type>
TGI

>  <result>
> 100 µM

$$$$
>  <compound>
Cn1c(CO)ccc1-c1ccc(-c2ccc[se]2)[se]1

>  <observation_type>
TGI

>  <result>
> 100 µM

$$$$
>  <compound>
CCc1ccc(CCC(=O)Nc2ncc(Cc3ccc(Cl)cc3)s2)o1

>  <observation_type>
TGI

>  <result>
> 100 µM

$$$$
>  <compound>
NC1=NS(=O)(=O)Nc2nc(-c3ccccc3)[nH]c21

>  <observation_type>
TGI

>  <result>
> 100 µM

$$$$
>  <compound>
CCCCCCCCCCCCCCC(O)C[N+](C)(CCO)CCO (stereo not drawn)

>  <observation_type>
TGI

>  <result>
4.66 µM

$$$$
>  <compound>
O=c1[nH]cc(Cl)c(=O)[nH]1

>  <observation_type>
TGI

>  <result>
> 100 µM

$$$$
>  <compound>
COC1=CC2(CC(OC)=C1OC)OC21COc2ccccc2C1=O (stereo not drawn)

>  <observation_type>
TGI

>  <result>
> 100 µM

$$$$
>  <compound>
Cc1csc2c1-n1cccc1C2=O

>  <observation_type>
TGI

>  <result>
> 100 µM

$$$$
>  <compound>
COC(=O)N/N=C(\C)c1c(O)cc(C)oc1=O

>  <observation_type>
TGI

>  <result>
44.5 µM

$$$$
>  <compound>
O=c1[nH]c2ccccc2nc1/C=C(\O)c1ccccc1O

>  <observation_type>
TGI

>  <result>
> 100 µM

$$$$
>  <compound>
Cc1ccc(/C=N/Nc2nc(Nc3ccccc3)nc(-n3nc(C)cc3C)n2)cc1

>  <observation_type>
TGI

>  <result>
22.1 µM

$$$$
>  <compound>
CCOC(=O)/C(=C/c1ccc(C(=O)OC)cc1)N(CC)CC

>  <observation_type>
TGI

>  <result>
> 100 µM

$$$$
>  <compound>
CC(=O)c1c2c(cc3c1CC1(C3)Cc3cc4c(c(C(C)=O)c3C1)CCC4)CCC2

>  <observation_type>
TGI

>  <result>
> 100 µM

$$$$
>  <compound>
O=C(CC1OC(O)C(Cl)=C1Cl)c1cccnc1 (stereo not drawn)

>  <observation_type>
TGI

>  <result>
> 100 µM

$$$$
>  <compound>
COc1ccc2c(c1)[nH]c(=O)c1c3cccc(F)c3cn21

>  <observation_type>
TGI

>  <result>
> 100 µM

$$$$
>  <compound>
COc1ccc(C/C(=C(\C)c2ccc(OCCN3CCCC3)cc2)c2ccc(OCCN3CCCC3)cc2)cc1

>  <observation_type>
TGI

>  <result>
3.18 µM

$$$$
>  <compound>
COC(=O)C1Cc2c(n(C)c3ccccc23)C(CCC(=O)O)N1Cc1ccccc1 (stereo not drawn)

>  <observation_type>
TGI

>  <result>
> 100 µM

$$$$
>  <compound>
CC(=O)Nc1ccc2[nH]c(C(=O)N3CC(CCl)c4c3cc([N+](=O)[O-])c3ccccc43)cc2c1 (stereo not drawn)

>  <observation_type>
TGI

>  <result>
> 100 µM

$$$$
>  <compound>
O=C1/C=C(/c2ccc(O)cc2)[C@@H](O)Cc2ccc(O)cc2O1

>  <observation_type>
TGI

>  <result>
> 100 µM

$$$$
>  <compound>
CCOC(=O)C(NC(=O)c1ccccc1)(N1CCN(c2cc3c(cc2F)c(=O)c(C(=O)O)cn3CC)CC1)C(F)(F)F (stereo not drawn)

>  <observation_type>
TGI

>  <result>
35.4 µM

$$$$
>  <compound>
CCOC(=O)NC(OC)(C(F)(F)F)C(F)(F)F

>  <observation_type>
TGI

>  <result>
> 100 µM

$$$$
>  <compound>
COc1c(-c2nc3nc(N4CCN(C)CC4)ccc3[nH]2)cc(OC)c2c1nc(COC(C)=O)n2C

>  <observation_type>
TGI

>  <result>
> 100 µM

$$$$
>  <compound>
CC1=C(/C=C/C(C)=C/C2CC(N(C)C)=CC(=O)O2)C(C)(C)CCC1 (stereo not drawn)

>  <observation_type>
TGI

>  <result>
30.3 µM

$$$$
>  <compound>
O=C(N=c1ccc2nc(=O)[nH]n(O)c-2c1)C(F)(F)F

>  <observation_type>
TGI

>  <result>
> 100 µM

$$$$
>  <compound>
CC(C)(C)OC(=O)CN1CCNCCN(CC(=O)OC(C)(C)C)CCNCC1

>  <observation_type>
TGI

>  <result>
> 100 µM

$$$$
>  <compound>
CC(=O)Nc1c(Nc2ccccc2)[nH]c(C)nc1=S

>  <observation_type>
TGI

>  <result>
> 100 µM

$$$$
>  <compound>
C/C=C1\CN(C(=O)OC(C)(C)C)C1C(=O)OC(C)(C)C (stereo not drawn)

>  <observation_type>
TGI

>  <result>
> 100 µM

$$$$
>  <compound>
CC(O)(P(=O)(O)O)P(=O)(O)OCC(O)CN1CCOCC1 (stereo not drawn)

>  <observation_type>
TGI

>  <result>
> 100 µM

$$$$
>  <compound>
O=C(O)c1ccc(C2=Cc3cc(Cl)ccc3OC2)cc1

>  <observation_type>
TGI

>  <result>
> 100 µM

$$$$
>  <compound>
Cn1ncc2c(Cl)ncnc21

>  <observation_type>
TGI

>  <result>
> 100 µM

$$$$
>  <compound>
NCC(O)CNC(=O)c1ccc(-c2ccc(-c3ccc(C(=O)NCC(O)CN)cc3)o2)cc1 (stereo not drawn)

>  <observation_type>
TGI

>  <result>
> 100 µM

$$$$
>  <compound>
C=C1C(=O)O[C@@H]2[C@H](O)[C@@H](C)[C@@H]3C=CC(=O)[C@@]3(C)[C@@H](OC(=O)/C(C)=C/C)[C@H]12

>  <observation_type>
TGI

>  <result>
2.88 µM

$$$$
>  <compound>
Nc1ccc(C(=O)N/C(=C\c2cccc([N+](=O)[O-])c2)c2nc3[nH]c(=S)[nH]c(=O)c3[nH]2)cc1

>  <observation_type>
TGI

>  <result>
> 100 µM

$$$$
>  <compound>
Clc1cccc(NN=Nc2ccc(-c3nc4ccccc4s3)cc2)c1

>  <observation_type>
TGI

>  <result>
> 100 µM

$$$$
>  <compound>
CC1=C(C(=O)Nc2ccccc2)C(c2cccc3ccccc23)C(C(=O)Nc2ccccc2)=C(C)N1

>  <observation_type>
TGI

>  <result>
30.4 µM

$$$$
>  <compound>
O=C(O)[C@H](NS(=O)(=O)c1ccc(F)cc1)c1ccccc1

>  <observation_type>
TGI

>  <result>
> 100 µM

$$$$
>  <compound>
C=C1C(O)C[C@H](OC(C)=O)[C@]2(C)C1C(OC(C)=O)[C@]1(C(C)(C)O)CC(O)C(C)=C1[C@@H](OC(=O)c1ccccc1)C2OC(C)=O (stereo partly drawn)

>  <observation_type>
TGI

>  <result>
> 10 µM

$$$$
>  <compound>
CC(C)=CCC/C(C)=C/COc1c2ccoc2cc2oc(=O)ccc12

>  <observation_type>
TGI

>  <result>
46.4 µM

$$$$
>  <compound>
CNC(=O)c1c(NC(=O)c2ccc(C(C)(C)C)cc2)sc2c1CCC(=O)C2

>  <observation_type>
TGI

>  <result>
1.31 µM

$$$$
>  <compound>
CSc1ccn(C2CC(F)C(CO)O2)c(=O)n1 (stereo not drawn)

>  <observation_type>
TGI

>  <result>
> 100 µM

$$$$
>  <compound>
CC(=O)Oc1c(N2CCCCC2)c(C(=O)c2ccccc2)c(O)c2ccn(N(C)C)c12

>  <observation_type>
TGI

>  <result>
33.1 µM

$$$$
